ASSAY COMMENT: qHTS assay for cell viability of the p53RE-bla HCT-116 cell line (AID 743292); note: nearly all actives have a fitted effect of over 55% in size; note: potency is the fitted concentration of half-maximal effect
PROTOCOL CONDITIONS: p53RE-bla HCT-116 viability, ATP luminescence, 16 h; series mostly up to 95 µM
Inconclusive results are not listed. The source made the active and inactive calls. Calls come from the whole dose curve; as a rule, active = well fitted cell-killing curve with a large enough effect; inconclusive = small, poorly fitted or top-dose-only effect, or effect the other way; inactive = flat fitted curve, though single readings scatter.
PARAMETER: Potency

COMPOUND: O=C1NC(=O)C(c2ccccc2)(c2ccccc2)N1
OBSERVED: inactive
--
COMPOUND: CN(C)CCC(c1ccccc1)c1ccccn1 (stereo unspecified)
OBSERVED: inactive
--
COMPOUND: O=c1[nH]cnc2c1ncn2[C@H]1CC[C@@H](CO)O1
OBSERVED: inactive
--
COMPOUND: CCCCC1C(=O)N(c2ccccc2)N(c2ccccc2)C1=O
OBSERVED: inactive

Give the reported Potency for this compound. O=C(O)c1cc(O)c2c(c1)C(=O)c1cccc(O)c1C2=O
35.5 µM (active)

Return the recorded Potency value; entry: CCCNC(=O)NS(=O)(=O)c1ccc(Cl)cc1
inactive
